B1: Ankyrin repeat and SAM domain-containing protein 6, residues 774 to 836; numbered along this chain, Q68DC2 (parent)
chain: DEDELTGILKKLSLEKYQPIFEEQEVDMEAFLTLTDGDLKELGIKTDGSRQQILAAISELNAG

Variants of: B1
procedure summary: abundance fitness (aPCA) (normalised: wild type 0, dead -1); higher = more abundant; growth selection in yeast, the domain comes from the species named
condition description: Homo sapiens
Below, each entry is listed with its recorded abundance fitness.
measured property: abundance fitness

DEDELTGILKKLSLEKYQPIFEEQEVDLEAFLTLTDGDLKELGIKTDGSRQQILAAISELNAG [M28L]    -0.155
DEDELTGILKKLSLEKYQPIFEEQEVDMEAFLTLTDGDHKELGIKTDGSRQQILAAISELNAG [L39H]    -0.751
DEDELTGILKKLSLEKYQPIFEEQEVDMEAFLTLTDGDLKELGIKTDGSRQQILAAISELNGG [A62G]    0.011
DEDELTGILKKLSLEKYQPIFEEQEVDMEAFLTLTDGKLKELGIKTDGSRQQILAAISELNAG [D38K]    -0.188
DEDELTGILKKLSLEKYDPIFEEQEVDMEAFLTLTDGDLKELGIKTDGSRQQILAAISELNAG [Q18D]    -0.344
DEDELTGILKKLSLEKYQPIFGEQEVDMEAFLTLTDGDLKELGIKTDGSRQQILAAISELNAG [E22G]    -0.388
DEDELTGILKKLSLEKYQPIFEEQEVDMEAFLTLTDGDLKELGIKTDGSKQQILAAISELNAG [R50K]    -0.582
DEDELTGILKKLSLEKYQPYFEEQEVDMEAFLTLTDGDLKELGIKTDGSRQQILAAISELNAG [I20Y]    -0.273
DEDELTGILKKLSLEKYQPIFEEQEVDMEAFLTLTDGDLYELGIKTDGSRQQILAAISELNAG [K40Y]    -0.115
DEDELTGILKKLSLEKYQPIFEEQEVDMEAFLTLTDGDRKELGIKTDGSRQQILAAISELNAG [L39R]    -0.599
DEDELTGILKKLSLEKYQPIFEEQEVDMEAFLTLTDGDLKELGIKGDGSRQQILAAISELNAG [T46G]    -0.011
DEDELTGILKKLSLEKKQPIFEEQEVDMEAFLTLTDGDLKELGIKTDGSRQQILAAISELNAG [Y17K]    -0.426
DEDELTGILKKLSLEKYQPIFELQEVDMEAFLTLTDGDLKELGIKTDGSRQQILAAISELNAG [E23L]    -0.419
DEDELTGILIKLSLEKYQPIFEEQEVDMEAFLTLTDGDLKELGIKTDGSRQQILAAISELNAG [K10I]    -0.815
DEDELTGILKKLSLEKYQPIFEEQEVDMEAFLTLTDGNLKELGIKTDGSRQQILAAISELNAG [D38N]    -0.2
DEDELTGILKKLSLEKYQPIFEEQEVDMEAFLTLEDGDLKELGIKTDGSRQQILAAISELNAG [T35E]    -0.067
DEDELTGILKKLSLEKYQPIFEEQEVDMEAFLTLTDGDLKELGIKTDGSRQQILAFISELNAG [A56F]    -0.246
DEDELTGIAKKLSLEKYQPIFEEQEVDMEAFLTLTDGDLKELGIKTDGSRQQILAAISELNAG [L9A]    -0.913
DEDELTGILKKLSLEKYQPIFEEQEVDMEAFLTLTDGDLKELGIKDDGSRQQILAAISELNAG [T46D]    0.118
DEDELTGILKKLSLEKYQPIFEEQEVDMEAFLTLTDGDLKELGINTDGSRQQILAAISELNAG [K45N]    -0.079
DEDELTGILKKLSLEKYQPIFEEQVVDMEAFLTLTDGDLKELGIKTDGSRQQILAAISELNAG [E25V]    -0.21
DEDELTGILKKLSLEKYQPIFEEQEVDMEAFLTLTNGDLKELGIKTDGSRQQILAAISELNAG [D36N]    -0.252
DEDELTGILKKLSLEKYQPIFEEQEVDMEAFLTLTDGDLKRLGIKTDGSRQQILAAISELNAG [E41R]    -0.049
DEDELTGILKKLSLEKYQPIFEEQEVAMEAFLTLTDGDLKELGIKTDGSRQQILAAISELNAG [D27A]    -0.47
DEDELTGILKKFSLEKYQPIFEEQEVDMEAFLTLTDGDLKELGIKTDGSRQQILAAISELNAG [L12F]    0.005
DEGELTGILKKLSLEKYQPIFEEQEVDMEAFLTLTDGDLKELGIKTDGSRQQILAAISELNAG [D3G]    -0.472
DEDELTGILKKLSLEKYQPIFEEQEVDMEAFLTLTDGDLKELHIKTDGSRQQILAAISELNAG [G43H]    -0.556
DEDELTGILKKLSGEKYQPIFEEQEVDMEAFLTLTDGDLKELGIKTDGSRQQILAAISELNAG [L14G]    -1.05
DEDELTGILKKLSLEKYQPIFEEQEVDMEAFLTLTDGDLKELGIKTGGSRQQILAAISELNAG [D47G]    -0.158
DQDELTGILKKLSLEKYQPIFEEQEVDMEAFLTLTDGDLKELGIKTDGSRQQILAAISELNAG [E2Q]    0.11
DEDELTGILKKLSLEKYQPIFEEQEVDMEAFLTLTDGDLKELMIKTDGSRQQILAAISELNAG [G43M]    -0.611
DEDELTGILKKLSLEKYQPIFEEQEVDMEAFLTLTDGDLKELCIKTDGSRQQILAAISELNAG [G43C]    -0.742
DEDELTGILKKLSLEKYQPIFEEQEVDMSAFLTLTDGDLKELGIKTDGSRQQILAAISELNAG [E29S]    -0.228
DEDELTGILKKLSLEKYQPIFEEQEVDMEAFLTLTDGMLKELGIKTDGSRQQILAAISELNAG [D38M]    -0.611
DEDELTGILKKLSLEKYQPIFEEQEVDMEAFLTLTDGDLKELGIKTDGSRQQMLAAISELNAG [I53M]    -0.062
DEDELTGILKKLSLEKYQPIFEEQEVDMEAFLTLTDGDLKELGIKTDGSRQQQLAAISELNAG [I53Q]    -0.686
DEDELTGILKKLSLEKYQPIFEEQEVDFEAFLTLTDGDLKELGIKTDGSRQQILAAISELNAG [M28F]    -0.132
DEDELTGILKKLSLEKYQPIFEEQEVDMEAFLTLTDGDLKELGIFTDGSRQQILAAISELNAG [K45F]    -0.143
DEDELTGILKKLSLEKYQPIFEEQEVDMEAFLTLTDGDLKELGIKTDGPRQQILAAISELNAG [S49P]    -0.208
DEDELTGILKKLSLEKYQPIFEEQEVDMEAFLTLTMGDLKELGIKTDGSRQQILAAISELNAG [D36M]    -0.441
DEDELTGILKKLSLEKYQPIFEEQEVDMMAFLTLTDGDLKELGIKTDGSRQQILAAISELNAG [E29M]    -0.318
DEDELTGILKKLSLEKYQPIFEEQEVDMEAFLTLTDGDLKELGIKTDGSRQQILAAISELNQG [A62Q]    -0.121
DEDELTGILKKLSLEKYQPIFEEQEVDMEAFLDLTDGDLKELGIKTDGSRQQILAAISELNAG [T33D]    -0.122
DEDELTGILKKSSLEKYQPIFEEQEVDMEAFLTLTDGDLKELGIKTDGSRQQILAAISELNAG [L12S]    -0.531
DEDELTGILKKLSLTKYQPIFEEQEVDMEAFLTLTDGDLKELGIKTDGSRQQILAAISELNAG [E15T]    -0.21
DEDELTGILKKLSLEKYQPIFEEQEVDMEAFLTLTDGDLKELGIKTDGSRQQIGAAISELNAG [L54G]    -0.433
